experiment: inhibition of 3D7 malaria parasite growth – strain 3D7 (AID 2306);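 further: 0% = DMSO wells and 100% = chloroquine plus artemisinin control wells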; conditions: P. falciparum 3D7 erythrocytic growth, LDH absorbance, 72 h; at 2 µM; active compounds read high
Provide the reported growth inhibition of each item.
Report the value in % with no unit label.

Kindly indicate its recorded growth inhibition. Item: Cc1ccc2c(O)c([N+](=O)[O-])c(=O)[nH]c2c1
98

Kindly indicate its recorded growth inhibition. Item: CCCc1cc2c3c(N)nc(N)nc3ccc2n1C(CC)CC
102

Kindly indicate its recorded growth inhibition. Item: CSc1c(CNCCCNc2cc(=O)c3ccccc3[nH]2)[nH]c2ccccc12
87

Kindly indicate its recorded growth inhibition. Item: N#Cc1ccc(CN2CCC(Oc3ccc(NC(=O)c4ccsc4)cc3Cl)C2)cc1 (stereo not drawn)
88

Kindly indicate its recorded growth inhibition. Item: CCc1ccccc1NC(=O)CN1CCN(c2ncnc3scc(-c4ccc(F)cc4)c23)CC1
83

Kindly indicate its recorded growth inhibition. Item: COc1ccc(-c2nc(NC(=O)CS(=O)(=O)c3ccc(OC)cc3)sc2C)cc1
95

Kindly indicate its recorded growth inhibition. Item: O=C(Nc1ccc(Cl)cc1)c1cccc(S(=O)(=O)NC2CCN(CC3CCCCC3)C2)c1 (stereo not drawn)
90

Kindly indicate its recorded growth inhibition. Item: COc1ccc2nccc([C@@H](O)CN3CCC(NC(=O)c4ccc(Oc5ccccc5)cc4)CC3)c2c1
82

Kindly indicate its recorded growth inhibition. Item: CCOC(=O)c1ccc(N(CCCN(CCCN(c2ccc(C(=O)OCC)cc2)S(=O)(=O)c2ccc(C)cc2)CCc2ccc(O)cc2)S(=O)(=O)c2ccc(C)cc2)cc1
96

Kindly indicate its recorded growth inhibition. Item: CN1CCCN(Cc2cccc(-c3ccc(NC(=O)c4ccc(Cl)cc4)cc3)c2)CC1
97

Kindly indicate its recorded growth inhibition. Item: Cc1cccc2[nH]c(-c3ccc(-c4cccc(C(=O)NCCc5cn(C)cn5)c4)s3)nc12
92

Kindly indicate its recorded growth inhibition. Item: Cc1ccccc1C1CCN(c2ccc(C(=O)Nc3ccccc3)cn2)CC1
95

Kindly indicate its recorded growth inhibition. Item: CN(C)CCCOc1ccc(-c2csc(NC(N)=NCc3ccccc3)n2)cc1
100

Kindly indicate its recorded growth inhibition. Item: CCS(=O)(=O)c1ccc(-c2cnc3[nH]cc(-c4ccc(N)cc4)c3c2)cc1
92

Kindly indicate its recorded growth inhibition. Item: COc1cccc(COCC(O)CN(CCc2ccccn2)C(=O)c2ccccc2F)c1 (stereo not drawn)
97

Kindly indicate its recorded growth inhibition. Item: CCC(C)NC(=O)Nc1ccc(-c2cccc(-c3nc4ccc(C(F)(F)F)cc4[nH]3)c2)cc1 (stereo not drawn)
97

Kindly indicate its recorded growth inhibition. Item: O=C(NCCCN(Cc1ccc(F)cc1)c1ccccn1)C(c1cc2ccccc2o1)N1CCN(C(c2ccccc2)c2ccccc2)CC1 (stereo not drawn)
97

Kindly indicate its recorded growth inhibition. Item: CCc1cccc2c(C#N)cn(CC(=O)Nc3ccc(OC)cc3)c12
97

Kindly indicate its recorded growth inhibition. Item: COc1cc2nc(-c3ccc(Br)cc3)cc(N)c2cc1OC
98

Kindly indicate its recorded growth inhibition. Item: O=C(Nc1ccc(CCNCCCc2ccccc2)cc1)Nc1ccc(Cl)c(Cl)c1
100

Kindly indicate its recorded growth inhibition. Item: COC(=O)Nc1nc2cc3c(cc2s1)OCCO3
99

Kindly indicate its recorded growth inhibition. Item: CCCCCN(C(=O)Nc1cc(C(F)(F)F)cc(C(F)(F)F)c1)C(C)c1nc2ccccc2c(=O)n1CC (stereo not drawn)
100

Kindly indicate its recorded growth inhibition. Item: COc1ccc2ncc(F)c(CCN3CCC[C@H](CNCc4ccc5c(n4)NC(=O)CS5)C3)c2n1
96

Kindly indicate its recorded growth inhibition. Item: Cc1ccc(C(=O)Nc2ccc(Nc3ccnc4cc(-c5ccncc5)ccc34)cc2O)cc1
97

Kindly indicate its recorded growth inhibition. Item: Cc1cccc(Cl)c1Nc1nnc(-c2cccc(C(=O)NC[C@@H]3CC[C@H]4C[C@@H]3C4(C)C)c2)o1
85

Kindly indicate its recorded growth inhibition. Item: O=C(Nc1nc2cc(S(=O)(=O)NCCc3ccc(F)cc3)ccc2n1CCCn1ccnc1)c1ccc(Cl)cc1
100

Kindly indicate its recorded growth inhibition. Item: Cc1nn(-c2ccccc2)nc1C(=O)NC1CCN(CCNC(=O)c2ccc(Cl)c(Cl)c2)CC1
89

Kindly indicate its recorded growth inhibition. Item: O=C(/C=C/c1ccc(C(F)(F)F)cc1)N1CCC(CCN2CCC(c3c[nH]c4ccccc34)CC2)CC1
100

Kindly indicate its recorded growth inhibition. Item: COc1ccc(CNC2CCN(C)CC2)cc1-c1ccc(S(=O)(=O)NCc2ccccc2)c(F)c1
101

Kindly indicate its recorded growth inhibition. Item: Cc1ccc(F)cc1S(=O)(=O)NCC(C)c1ccc(NC(=O)Nc2cccc(F)c2)cc1 (stereo not drawn)
95

Kindly indicate its recorded growth inhibition. Item: COc1ccc2nc(C)cc(NN=Cc3ccccc3F)c2c1
100

Kindly indicate its recorded growth inhibition. Item: CCOCCCn1c(=N)c(C(=O)NC(C)c2ccccc2)cc2c(=O)n3cccc(C)c3nc21 (stereo not drawn)
95

Kindly indicate its recorded growth inhibition. Item: CCN(c1ccc(F)cc1)S(=O)(=O)c1cc(Br)cc2c1N(C(=O)C1CC1)CC2
88

Kindly indicate its recorded growth inhibition. Item: COC(=O)C(NC(=O)c1ccc(-c2ccc(-c3nc4ccccc4[nH]3)s2)cc1)c1ccc(O)cc1 (stereo not drawn)
83

Kindly indicate its recorded growth inhibition. Item: CN1CCN(CC(=O)Nc2ccc(-c3ccc(-c4nc5ccc(C(F)(F)F)cc5[nH]4)cc3)cc2)CC1
101

Kindly indicate its recorded growth inhibition. Item: CC(=O)Nc1ncc(C(=O)Nc2cccc(-c3cccc(-c4nc5c(C)cccc5[nH]4)c3)c2)s1
94

Kindly indicate its recorded growth inhibition. Item: O=C(/C=C/c1ccc(Cl)c(Cl)c1)NCCCCCN1CCC(NC(=O)Nc2cc(Cl)cc(Cl)c2)CC1
94

Kindly indicate its recorded growth inhibition. Item: CN(C)CCCn1c(N)c(-c2nc3ccccc3[nH]2)c2nc(C#N)c(C#N)nc21
102
